B1: TRIM63 (parent)
chain: FRCPTCRHEVIMDRHGVYGLQRNL

variants of: B1; test: protein stability index of a GFP-peptide fusion (GPS, HEK-293T) (PSI 1-6); higher = more stable; settings: c terminus: a fixed tail appended;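 note: lentivirally expressed fusions sorted by FACS into six bins by GFP to DsRed ratio, PSI derived from sequencing read proportions per bin multiplied by bin number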
Record form. Attribute: protein stability index. Fill in for each entry.
Give bare numbers.

Example results:
FRCKTCRHEVIMDRHGVYGLQRNL [P4K] : 2.67
FRCPTCRHEVLMDRHGVYGLQRNL [I11L] : 2.18
FRYPTCRHEVIMDRHGVYGLQRNL [C3Y] : 3.25
FRAPTCRHEVIMDRHGVYGLQRNL [C3A] : 3.2
FRCPTCLHEVIMDRHGVYGLQRNL [R7L] : 2.13

Provide reported protein stability index for each item, in the same order as listed.
1. FRCPTCRHEVIMDRHGVYGLQTNL [R22T]
2. FRCPTCRHEVIMDRDGVYGLQRNL [H15D]
3. FRCPTCRHEVIMDRHGVYGAQRNL [L20A]

Found:
2.08
2.08
1.77

For each of the items listed, what is its protein stability index?
1. FRCPTCRLEVIMDRHGVYGLQRNL [H8L]
2. FRCPTCRHEVIMDRHGVTGLQRNL [Y18T]
3. FRCPTCPHEVIMDRHGVYGLQRNL [R7P]
4. FRCPTCRHEVIMDREGVYGLQRNL [H15E]

Found:
1. 2.39
2. 2.69
3. 2.36
4. 2.43
